tested on: Phakopsora Pachyrhizi; test: Fungicidal activity against Phakopsora pachyrhizi / soybean / leaf disc preventative (Asian soybean rust); assay type: in vivo; conditions: foliar, 200 ppm in the applied formulation, soybean leaf disks, compared to untreated control leaf disks, read-out: disease control
Measurement Label: pest or weed control at 200 ppm

Before answering, review these 5 worked examples.
Molecule: CCON(Cc1ccc(-c2noc(C(F)(F)F)n2)cc1)C(=O)C(C)C
pest or weed control at 200 ppm: ≥ 80%
--
Molecule: COCCNC(=O)N(Cc1ccc(-c2noc(C(F)(F)F)n2)cc1)OC
pest or weed control at 200 ppm: ≥ 80%
--
Molecule: CCC(=O)OCCN(Cc1ccc(-c2noc(C(F)(F)F)n2)cc1)C(=O)CC
pest or weed control at 200 ppm: ≥ 80%
--
Molecule: CON(Cc1ccc(-c2noc(C(F)(F)F)n2)cc1)C(=O)N(C)C1CC1
pest or weed control at 200 ppm: ≥ 80%
--
Molecule: CCCCON(Cc1ccc(-c2noc(C(F)(F)F)n2)cc1)C(=O)C1CCOC1 (centres unmarked)
pest or weed control at 200 ppm: ≥ 80%

List the reported pest or weed control at 200 ppm of each molecule below.
1. COCCC(=O)N(Cc1ccc(-c2noc(C(F)(F)F)n2)cc1)CC(F)(F)F
2. CC=CCC(=O)N(Cc1ccc(-c2noc(C(F)(F)F)n2)cc1)CC1CC1
3. CCON(Cc1ccc(-c2noc(C(F)(F)F)n2)cc1)C(=O)CC#N

OUT:
1. ≥ 80%
2. ≥ 80%
3. ≥ 80%

====

Measurement Label: melting point

Compound: CON(Cc1ccc(-c2noc(C(F)(F)F)n2)cc1)C(N)=O [Compound 3.32]
Measurement Label: melting point
Result: 112.2 to 114.7 °C
--
Compound: CON(Cc1ccc(-c2noc(C(F)(F)F)n2)cc1)C(=O)NC(C)C [Compound 3.42]
Measurement Label: melting point
Result: 106 to 107.3 °C

List the reported melting point of each compound below.
1. CN(Cc1ccc(-c2noc(C(F)(F)F)n2)cc1)C(=O)CO [Compound 1.593]
2. CON(Cc1ccc(-c2noc(C(F)(F)F)n2)cc1)C(=O)C(C)N.Cl (stereo not drawn) [Compound 1.792]
3. O=C(C1CC1)N(Cc1ccc(-c2noc(C(F)(F)F)n2)cc1)C1COC1 [Compound 1.605]
4. CON(C)C(=O)N(C)C(C#N)c1ccc(-c2noc(C(F)(F)F)n2)cc1 (stereo not drawn) [Compound 3.31]
5. COCC(=O)N(O)Cc1ccc(-c2noc(C(F)(F)F)n2)cc1 [Compound 1.606]
6. C#CCNC(=O)N(Cc1ccc(-c2noc(C(F)(F)F)n2)cc1)OC [Compound 3.43]
7. CON(Cc1ccc(-c2noc(C(F)(F)F)n2)cc1)C(=O)NCC1(O)CC1 [Compound 3.54]

OUT:
1. 54 to 60 °C
2. 200.7 to 203.2 °C
3. 89.5 to 94 °C
4. 106 to 107 °C
5. 144.4 to 147.8 °C
6. 88.9 to 90.6 °C
7. 107 to 110 °C

====

System: Phakopsora Pachyrhizi
Experiment: Fungicidal activity against Phakopsora pachyrhizi / soybean / leaf disc preventative (Asian soybean rust)
Format: in vivo
Conditions: foliar, 200 ppm in the applied formulation, soybean leaf disks, compared to untreated control leaf disks, read-out: disease control
Protocol: Leaf disks or leaf segments of various plant species are cut from plants grown in a greenhouse. The cut leaf disks or segments are placed in multiwell plates (24-well format) onto water agar. The leaf disks are sprayed with a test solution before (preventative) or after (curative) inoculation. […] Percent disease control relative to the untreated check leaf disks or segments is then calculated. […]
Measurement Label: pest or weed control at 200 ppm

Before answering, review these 5 worked examples.
Molecule: CON(Cc1ccc(-c2noc(C(F)(F)F)n2)cc1)C(=O)NCC(=O)N(C)C
System Name: Phakopsora Pachyrhizi
pest or weed control at 200 ppm: ≥ 80%
//
Molecule: CCON(Cc1ccc(-c2noc(C(F)(F)F)n2)cc1)C(=O)N(C)C
System Name: Phakopsora Pachyrhizi
pest or weed control at 200 ppm: ≥ 80%
//
Molecule: CC1(C(=O)N(O)Cc2ccc(-c3noc(C(F)(F)F)n3)cc2)COC1
System Name: Phakopsora Pachyrhizi
pest or weed control at 200 ppm: ≥ 80%
//
Molecule: CON(C)C(=O)N(C)C(C#N)c1ccc(-c2noc(C(F)(F)F)n2)cc1 (centres unmarked)
System Name: Phakopsora Pachyrhizi
pest or weed control at 200 ppm: ≥ 80%
//
Molecule: CON(C(=O)C1(C#N)CC1)C(C)c1ccc(-c2noc(C(F)(F)F)n2)cc1 (centres unmarked)
System Name: Phakopsora Pachyrhizi
pest or weed control at 200 ppm: ≥ 80%

List the reported pest or weed control at 200 ppm of each molecule below.
1. O=C(CC1CC1)OCCN(Cc1ccc(-c2noc(C(F)(F)F)n2)cc1)C(=O)CC1CC1
2. CCN(Cc1ccc(-c2noc(C(F)(F)F)n2)cc1)C(=O)C1OCCO1
3. CCC(=O)N(Cc1ccc(-c2noc(C(F)(F)F)n2)cn1)OC

OUT:
≥ 80%
≥ 80%
≥ 80%

These data points were gathered from patent US11180462B2.
